- Target or system: T1, Recombinant human mesothelin (human, UniProt Q13421 296-580, limits assumed)
- T1 construct: also called MSLN
- T1 sequence (Q13421 other isoform, or with tags, fused parts or gaps limits assumed): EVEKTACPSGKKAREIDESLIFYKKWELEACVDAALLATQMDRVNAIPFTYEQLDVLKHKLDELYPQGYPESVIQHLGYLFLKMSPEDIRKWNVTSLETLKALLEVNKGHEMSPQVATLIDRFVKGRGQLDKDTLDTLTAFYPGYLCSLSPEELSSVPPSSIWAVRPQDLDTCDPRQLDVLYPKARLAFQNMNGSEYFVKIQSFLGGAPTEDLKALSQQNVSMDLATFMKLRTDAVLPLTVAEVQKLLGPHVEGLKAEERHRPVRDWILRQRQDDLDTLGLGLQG
- Test name: Biacore T100, antibody captured on anti-human IgG, antigen injected, 1:1 Langmuir
- Experimental: Antibody concentrations were adjusted to 2 μg/mL in HBS-P+ buffer (GE Healthcare). Unmodified antibodies, or ADCs, were injected over an anti-human IgG sensor on a BIAcore T100 (GE Healthcare) for 1 min at a flow rate of 10 μL/min. […] The dissociation of antigen was monitored for 30 min at the same flow rate. […] Sensograms were analyzed with Biacore T100 Evaluation Software using a 1:1 Langmuir binding model. […]
pKd: −log10 of the molar value.

Binder	pKd
33011-zu (antibody, human IgG1, kappa, V domains shown, Humanized anti-human mesothelin with unpaired cysteine at LCcys80; parental (unconjugated) mAb in Biacore; also called 33O11 zu) VH: EVQLVESGGGLVQPGGSLRLSCAASGISLSSDAISWVRQAPGKGLEYIGIINGGGNTYYASWAKGRFTISRHNSKNTLYLQMNSLRAEDTAVYYCARGIQHGGGNSDYYYYGMDLWGQGTLVTVSS VL: DIQMTQSPSSLSASVGDRVTITCQASQSISSVLSWYQQKPGKAPKLLIYLASTLASGVPSRFSGSGSGTDFTLTISSLQCEDIATYYCQTNYGTSSSNYGFAFGGGTKVEIKR	8.47
111B10-xi (antibody, human IgG1, kappa, V domains shown, Rabbit-human chimeric anti-human mesothelin with unpaired cysteine at LCcys80; parental mAb in Biacore; also called 111810 xi) VH: QSVEESGGRLVTPGTPLTLTCTVSGFSLNNYAMSWVRQAPGKGLEWIGSISTGGLAFYANWAKGRFTISRTSTTVDLKMTSLTTEDTATYFCGRNGGGSYIFYYFDLWGQGTLVTVSS VL: AFELTQTPSSVEAAVGGTITIKCQASQSISSYLSWYQQKPGQPPKLLIYSASTLASGVSSRFKGSGSGTEYTLTISDLECADAATYFCQSYYDIGTSTFGGGTEVVVKR	8.20
201C15-zu (antibody, human IgG1, kappa, V domains shown, Humanized anti-human mesothelin with unpaired cysteine at LCcys80; parental mAb in Biacore) VH: QVQLVESGGGLVQPGGSLRLSCSASGIDLSSYAMGWVRQAPGKGLEYIGTINIGGRVYYASWAKGRFTISRDNSKNTLYLQMNSLRAEDTAVYYCARYYNGGSYDIWGQGTLVTVSS VL: DIQMTQSPSTLSASVGDRVTITCQASESIYRVLAWYQQKPGKAPKLLIYDTSTLASGVPSRFSGSGSGTEFTLTISSLQCDDAATYYCQGGYYADSYGIAFGGGTKVEIKR	8.38

Just for reference, patent US20170252458A1 is where these values come from.
